B1: glmS ribozyme (parent)
chain: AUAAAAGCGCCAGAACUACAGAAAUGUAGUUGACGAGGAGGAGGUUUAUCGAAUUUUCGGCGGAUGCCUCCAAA

Variants of: B1
Test: self-cleavage kobs at 10000 uM GlcN6P; higher = faster cleavage; RNA array
Details: with glucosamine-6-phosphate
Fewer inactive variants are shown than the library holds.
endpoint-label: self-cleavage kobs at 10000 uM GlcN6P

>  <mutation-annotation>
G38C U57C

>  <result>
< 1e-05 s⁻¹

$$$$
>  <mutation-annotation>
C11G A39C

>  <result>
< 1e-05 s⁻¹

$$$$
>  <mutation-annotation>
C10U G13C

>  <result>
< 1e-05 s⁻¹

$$$$
>  <mutation-annotation>
A6C A15U C34A A39G U65A

>  <result>
< 1e-05 s⁻¹

$$$$
>  <mutation-annotation>
C34A G40U G66A

>  <result>
< 1e-05 s⁻¹

$$$$
>  <mutation-annotation>
A6C A52C

>  <result>
< 1e-05 s⁻¹

$$$$
>  <mutation-annotation>
C8G C16U

>  <result>
< 1e-05 s⁻¹

$$$$
>  <mutation-annotation>
U57C G62A

>  <result>
< 1e-05 s⁻¹

$$$$
>  <mutation-annotation>
G9U G51U

>  <result>
< 1e-05 s⁻¹

$$$$
>  <mutation-annotation>
U57A C61U

>  <result>
< 1e-05 s⁻¹

$$$$
>  <mutation-annotation>
A6G A36G G41A

>  <result>
< 1e-05 s⁻¹

$$$$
>  <mutation-annotation>
U31G G59C

>  <result>
< 1e-05 s⁻¹

$$$$
>  <mutation-annotation>
U49C U57G

>  <result>
< 1e-05 s⁻¹

$$$$
>  <mutation-annotation>
A6C U54G

>  <result>
7.93e-05 s⁻¹

$$$$
>  <mutation-annotation>
A15U G41A

>  <result>
8.75e-05 s⁻¹

$$$$
>  <mutation-annotation>
C16U U65A U69A

>  <result>
2.63e-05 s⁻¹

$$$$
>  <mutation-annotation>
G35U C50U

>  <result>
< 1e-05 s⁻¹

$$$$
